Give measured log10 AUC(0-t) at 6 h for each item. Keep answers brief.
assay: pharmacokinetic behavior in baboons, 20 mg/kg (Tables 4 and 6); assay type: in vivo; settings: baboon, plasma, 20 mg/kg (Table 6), trapezium method
On a log10 scale: recorded AUC(0-t) at 6 h, unit µg·h/mL.

Example molecules with recorded log10 AUC(0-t) at 6 h:
Consider the molecule CC(C)(O/N=C(\C(=O)NC1C(=O)N2C(C(=O)O)=C(COC(=O)c3ccc(NC(=O)CN)c(O)c3)CSC12)c1csc(N)n1)C(=O)O (stereo not drawn) and give its measured log10 AUC(0-t) at 6 h.
2.85

I'd like to know its log10 AUC(0-t) at 6 h. The molecule in question is CC(C)(O/N=C(\C(=O)NC1C(=O)N2C(C(=O)O)=C(COC(=O)c3ccc(NC(=O)C(N)CCN)c(O)c3)CSC12)c1csc(N)n1)C(=O)O (stereo not drawn)
2.85

Find the recorded log10 AUC(0-t) at 6 h belonging to CC(C)(ON=C(C(=O)NC1C(=O)N2C(C(=O)O)=C(COC(=O)c3ccc(NC(=O)CCN)cc3)CSC12)c1csc(N)n1)C(=O)O (stereo not drawn) [Product B, reference compound] and report it.
1.94

So what does the record say about log10 AUC(0-t) at 6 h for CC(C)(ON=C(C(=O)NC1C(=O)N2C(C(=O)O)=C(COC(=O)c3ccc(NC(=O)CN)cc3)CSC12)c1csc(N)n1)C(=O)O (stereo not drawn) [Product A, reference compound] ?
2.45

Reported log10 AUC(0-t) at 6 h for CC(C)(O/N=C(\C(=O)NC1C(=O)N2C(C(=O)O)=C(COC(=O)c3ccc(NC(=O)CCN)c(O)c3)CSC12)c1csc(N)n1)C(=O)O (stereo not drawn) : what is it?
2.54

Continue with the molecule presented below.
Would you kindly share the measured log10 AUC(0-t) at 6 h for CC(C)(O/N=C(\C(=O)NC1C(=O)N2C(C(=O)O)=C(COC(=O)c3ccc(NC(=O)[C@@H](N)CCCN)c(O)c3)CSC12)c1csc(N)n1)C(=O)O (stereo partly drawn) ?
2.95

----------
assay: pharmacokinetic behavior in baboons, 20 mg/kg (Tables 4 and 6); type: in vivo; conditions: baboon, plasma, 20 mg/kg (Table 6), read-out: Max plasma concentration
Consider the following compounds; for each one, report its Cmax.
Give bare numbers, in µg/mL.

Use these answered entries as a reference point.
Which Cmax value belongs to CC(C)(ON=C(C(=O)NC1C(=O)N2C(C(=O)O)=C(COC(=O)c3ccc(NC(=O)CCN)cc3)CSC12)c1csc(N)n1)C(=O)O (stereo not drawn) [Product B, reference compound] ?
24.1

Sample CC(C)(O/N=C(\C(=O)NC1C(=O)N2C(C(=O)O)=C(COC(=O)c3ccc(NC(=O)CN)c(O)c3)CSC12)c1csc(N)n1)C(=O)O (stereo not drawn) — what was its Cmax?
151

Sample CC(C)(O/N=C(\C(=O)NC1C(=O)N2C(C(=O)O)=C(COC(=O)c3ccc(NC(=O)CCN)c(O)c3)CSC12)c1csc(N)n1)C(=O)O (stereo not drawn) — what was its Cmax?
94.1

Which Cmax is reported for this compound? CC(C)(O/N=C(\C(=O)NC1C(=O)N2C(C(=O)O)=C(COC(=O)c3ccc(NC(=O)[C@@H](N)CCCN)c(O)c3)CSC12)c1csc(N)n1)C(=O)O (stereo partly drawn)
195

Look up Cmax: CC(C)(O/N=C(\C(=O)NC1C(=O)N2C(C(=O)O)=C(COC(=O)c3ccc(NC(=O)C(N)CCN)c(O)c3)CSC12)c1csc(N)n1)C(=O)O (stereo not drawn)
143

Next, consider the following compound.
Param item = CC(C)(ON=C(C(=O)NC1C(=O)N2C(C(=O)O)=C(COC(=O)c3ccc(NC(=O)CN)cc3)CSC12)c1csc(N)n1)C(=O)O (stereo not drawn) [Product A, reference compound] ; retrieve measured Cmax.
69.5

----------
Assay: pharmacokinetic behavior in baboons, 20 mg/kg (Tables 5 and 7)
Format: in vivo
Conditions: baboon, plasma, 20 mg/kg, 0.33 hours
Description: Furthermore, the pharmacokinetic behavior of the products according to the invention was studied in baboons after administration at a dose of 20 mg/kg by intramuscular injection or intravenous injection. […] the elimination half-life (t1/2 β) is calculated by the formula [formula] in which β represents the elimination gradient or slope; the area under the curve (AUC) is determined by the trapezium method. […]
Assignment: determine reported concentration at 0.33 h for the given molecules.
Numbers only, in µg/mL.

Reported concentration at 0.33 h, molecule CC(C)(ON=C(C(=O)NC1C(=O)N2C(C(=O)O)=C(COC(=O)c3ccc(NS(=O)(=O)CCN)cc3)CSC12)c1csc(N)n1)C(=O)O (centres unmarked) [C, reference compound] : ____
170

Let's switch to this molecule now.
Which measured concentration at 0.33 h value corresponds to CO/N=C(\C(=O)NC1C(=O)N2C(C(=O)O)=C(COC(=O)c3ccc(NS(=O)(=O)CCN)c(O)c3)CSC12)c1csc(N)n1 (centres unmarked) ?
206

----------
system: Escherichia coli SOL RL 90
Measurement type: MIC (µg/mL)
Numbers only, in µg/mL.

Example molecules with recorded MIC:
Could you tell me which MIC is on file for CC(C)(O/N=C(\C(=O)NC1C(=O)N2C(C(=O)O)=C(COC(=O)c3ccc(NC(=O)CCN)c(O)c3)CSC12)c1csc(N)n1)C(=O)O (stereo not drawn) ?
2

Which MIC value is on record for CC(C)(O/N=C(\C(=O)NC1C(=O)N2C(C(=O)O)=C(COC(=O)c3ccc(NC(=O)C(N)CCN)c(O)c3)CSC12)c1csc(N)n1)C(=O)O (stereo not drawn) ?
2

Let us move to another entry and its MIC.
Fill blank: measured MIC of the molecule CO/N=C(\C(=O)NC1C(=O)N2C(C(=O)O)=C(COC(=O)c3ccc(NS(=O)(=O)CCN)c(O)c3)CSC12)c1csc(N)n1 (stereo not drawn) is ____.
0.5

----------
assay: pharmacokinetic behavior in baboons, 20 mg/kg (Tables 5 and 7); format: in vivo; settings: baboon, plasma, 20 mg/kg, 4 hours
What concentration at 4 h was measured for each of the following?
Answers without a unit are incomplete; give the number and then its unit.

// lookup concentration at 4 h for CO/N=C(\C(=O)NC1C(=O)N2C(C(=O)O)=C(COC(=O)c3ccc(NS(=O)(=O)CCN)c(O)c3)CSC12)c1csc(N)n1 (centres unmarked)
147 µg/mL

Then this compound:
Give its concentration at 4 h value. Item: CC(C)(ON=C(C(=O)NC1C(=O)N2C(C(=O)O)=C(COC(=O)c3ccc(NS(=O)(=O)CCN)cc3)CSC12)c1csc(N)n1)C(=O)O (centres unmarked) [C, reference compound]
68.7 µg/mL

----------
test: pharmacokinetic behavior in baboons, 20 mg/kg (Tables 5 and 7); format: in vivo; conditions: baboon, plasma, 20 mg/kg, 0.5 hours
For each of the compounds below, state its concentration at 0.5 h.
Please answer in the form of a number followed by its unit of measurement.

Look at this compound and give its reported concentration at 0.5 h. CO/N=C(\C(=O)NC1C(=O)N2C(C(=O)O)=C(COC(=O)c3ccc(NS(=O)(=O)CCN)c(O)c3)CSC12)c1csc(N)n1 (centres unmarked)
194 µg/mL

Next compound, concentration at 0.5 h to be filled in.
What concentration at 0.5 h value was documented for this compound, CC(C)(ON=C(C(=O)NC1C(=O)N2C(C(=O)O)=C(COC(=O)c3ccc(NS(=O)(=O)CCN)cc3)CSC12)c1csc(N)n1)C(=O)O (centres unmarked) [C, reference compound] ?
124 µg/mL

----------
Test: pharmacokinetic behavior in baboons, 20 mg/kg (Tables 5 and 7)
Format: in vivo
Settings: baboon, plasma, 20 mg/kg, 3 hours
Protocol: Furthermore, the pharmacokinetic behavior of the products according to the invention was studied in baboons after administration at a dose of 20 mg/kg by intramuscular injection or intravenous injection. […] the elimination half-life (t1/2 β) is calculated by the formula [formula] in which β represents the elimination gradient or slope; the area under the curve (AUC) is determined by the trapezium method. […]
Measurement type: concentration at 3 h (µg/mL)
Numbers only, in µg/mL.

// returns reported concentration at 3 h for input CC(C)(ON=C(C(=O)NC1C(=O)N2C(C(=O)O)=C(COC(=O)c3ccc(NS(=O)(=O)CCN)cc3)CSC12)c1csc(N)n1)C(=O)O (centres unmarked) [C, reference compound]
72.9

---
Item CO/N=C(\C(=O)NC1C(=O)N2C(C(=O)O)=C(COC(=O)c3ccc(NS(=O)(=O)CCN)c(O)c3)CSC12)c1csc(N)n1 (centres unmarked) has what recorded concentration at 3 h?
152

----------
I'd appreciate it if you could supply concentration at 0.16 h values for the items below.
assay: pharmacokinetic behavior in baboons, 20 mg/kg (Tables 5 and 7); type: in vivo; settings: baboon, plasma, 20 mg/kg, 0.16 hours
Numbers only, in µg/mL.

Tell me the measured concentration at 0.16 h of CO/N=C(\C(=O)NC1C(=O)N2C(C(=O)O)=C(COC(=O)c3ccc(NS(=O)(=O)CCN)c(O)c3)CSC12)c1csc(N)n1 (centres unmarked) , please.
251

From here, focus on the item given below.
Would you mind telling me what concentration at 0.16 h value was observed for CC(C)(ON=C(C(=O)NC1C(=O)N2C(C(=O)O)=C(COC(=O)c3ccc(NS(=O)(=O)CCN)cc3)CSC12)c1csc(N)n1)C(=O)O (centres unmarked) [C, reference compound] ?
213
